assay: activity coefficient (dimensionless); of the first substance listed, at infinite dilution; xn = mol fraction of the nth substance listed; details: 318.15 K; Liquid; Chromatography; x1 = 0
value.type: activity coefficient
Numbers only.

Example results:
C1CCOCC1 [tetrahydropyran] + O: 96.2
C1COCO1 [1,3-dioxolane] + O: 10.6

I have 3 molecules here; please give me activity coefficient for each one.
1. C1CCOC1 [tetrahydrofuran] + O
2. COCCOC [1,2-dimethoxyethane] + O
3. CCOCC [diethyl ether] + O

1. 24
2. 7.25
3. 121

====

Could you please report measured activity coefficient for the items listed next?
assay: activity coefficient (dimensionless); of the first substance listed, at infinite dilution; xn = mol fraction of the nth substance listed; settings: 298.15 K; Liquid; Chromatography; x1 = 0

COCOC [dimethoxymethane] + O: 16.9
C1CCOC1 [tetrahydrofuran] + O: 17.6
CCOCC [diethyl ether] + O: 77.1

Okay, next one:
Given the entry C1CCOCC1 [tetrahydropyran] + O , report its measured activity coefficient.
70.5
